Catalogue of Stability (T1/2 (h)) readings, one per entry.
# Study System: HLA-A02.01 (Homo sapiens, UniProt P04439, D140Y/D185E/D98H/E176V/E277Q/G131W/G231S/I119V/I121R/I166T/I218V/N151K/N90K/P208A/P217A/Q86G/Q94H/R138H/R169H)
# Construct: made in house; host or cells: E. coli
# Experiment Description: Class I MHC peptide binding stability (pMHC-I dissociation, 125I-labeled light chain)
# Details: allele A02.01
Where a SMILES comes first, the peptide text is derived from it.
Give just the number in h; leave the unit off.

Solved cases (6 shown):
Compound	Measured Parameter	Observed
CSCC[C@H](NC(=O)[C@H](CCC(=O)O)NC(=O)[C@H](CC(C)C)NC(=O)[C@H](CC(C)C)NC(=O)[C@H](CC(C)C)NC(=O)[C@H](CC(=O)O)NC(=O)[C@H](CC(N)=O)NC(=O)[C@H](CC(C)C)NC(=O)[C@@H]1CCCN1)C(=O)O (H-PLNDLLLEM-OH; N-terminus and C-terminus assumed)	Stability (T1/2 (h))	4.2
CC[C@H](C)[C@H](N)C(=O)N[C@@H](CCSC)C(=O)N[C@@H](CCC(N)=O)C(=O)N[C@@H](CC(C)C)C(=O)N[C@@H](CCSC)C(=O)N1CCC[C@H]1C(=O)N[C@@H](Cc1ccccc1)C(=O)NCC(=O)N[C@@H](CS)C(=O)O (H-IMQLMPFGC-OH; N-terminus and C-terminus assumed)	Stability (T1/2 (h))	0.4
CC(C)[C@H](N)C(=O)N[C@H](C(=O)N1CCC[C@H]1C(=O)N[C@@H](CS)C(=O)N[C@@H](CCC(=O)O)C(=O)N1CCC[C@H]1C(=O)N1CCC[C@H]1C(=O)N[C@@H](CCC(=O)O)C(=O)N[C@H](C(=O)O)C(C)C)C(C)C	Stability (T1/2 (h))	0.9
CC[C@H](C)[C@H](NC(=O)[C@@H](NC(=O)[C@H](CC(C)C)NC(=O)[C@@H](NC(=O)[C@@H]1CCCN1C(=O)[C@H](CCCNC(=N)N)NC(=O)[C@H](Cc1c[nH]c2ccccc12)NC(=O)[C@H](CC(N)=O)NC(=O)[C@@H](N)CCSC)[C@@H](C)CC)[C@@H](C)O)C(=O)O (H-MNWRPILTI-OH; N-terminus and C-terminus assumed)	Stability (T1/2 (h))	3.8
CC[C@H](C)[C@H](NC(=O)[C@@H](NC(=O)[C@H](CC(C)C)NC(=O)[C@@H](NC(=O)[C@@H]1CCCN1C(=O)[C@H](CCCNC(=N)N)NC(=O)[C@H](CCC(N)=O)NC(=O)[C@H](CC(N)=O)NC(=O)[C@H](CCSC)NC(=O)CN)[C@@H](C)CC)[C@@H](C)O)C(=O)O	Stability (T1/2 (h))	0.4
CSCC[C@H](NC(=O)[C@H](CC(C)C)NC(=O)[C@H](CO)NC(=O)[C@H](CC(C)C)NC(=O)[C@@H]1CCCN1C(=O)[C@H](CCC(N)=O)NC(=O)[C@H](CCSC)NC(=O)[C@H](CCC(N)=O)NC(=O)[C@@H](N)Cc1ccccc1)C(=O)O	Stability (T1/2 (h))	0.3

Below: the item to evaluate.
Input: // query Stability (T1/2 (h)) value for entry "CC(C)C[C@H](NC(=O)[C@@H](N)CCCCN)C(=O)N[C@H](C(=O)N[C@H](C(=O)N[C@H](C(=O)NCC(=O)N[C@@H](C)C(=O)N[C@@H](CC(=O)O)C(=O)NCC(=O)N[C@H](C(=O)O)C(C)C)C(C)C)C(C)C)C(C)C"
Output: 0.9

###

# Study System: HLA-A01.01 (Homo sapiens, UniProt P04439, A114D/A174V/A182V/D101N/D185E/E176A/E190D/L180R/Q94H/R68K/S129P/T187R/V100A/V91M/W191G)
# Experiment Description: Class I MHC peptide binding affinity (displacement of radiolabeled reference peptide)
# Details: allele A01.01; read-out: Observed Affinity (IC50; (nM))
Where a SMILES comes first, the peptide text is derived from it.
Catalogue of IC50 readings, one per entry.
Give just the number in nM; leave the unit off.

Solved cases (2 shown):
Molecule	Measured Parameter	Observed
CC(C)C[C@H](NC(=O)[C@H](Cc1ccccc1)NC(=O)[C@H](CO)NC(=O)[C@H](CC(C)C)NC(=O)[C@@H](N)CS)C(=O)N[C@@H](CO)C(=O)N[C@@H](CO)C(=O)N[C@@H](Cc1c[nH]c2ccccc12)C(=O)N[C@@H](CC(=O)O)C(=O)N[C@@H](Cc1ccc(O)cc1)C(=O)O (H-CLSFLSSWDY-OH; N-terminus and C-terminus assumed)	IC50	987
CC(C)C[C@H](NC(=O)[C@H](Cc1ccccc1)NC(=O)[C@H](CO)NC(=O)[C@@H](N)CC(C)C)C(=O)N[C@@H](CO)C(=O)N[C@@H](CO)C(=O)N[C@@H](Cc1c[nH]c2ccccc12)C(=O)N[C@@H](CC(=O)O)C(=O)N[C@@H](Cc1ccc(O)cc1)C(=O)O (H-LSFLSSWDY-OH; N-terminus and C-terminus assumed)	IC50	52.9

Below: the item to evaluate.
Input: // query IC50 value for entry C[C@H](NC(=O)[C@H](CC(N)=O)NC(=O)[C@@H](NC(=O)[C@@H](NC(=O)[C@@H](N)Cc1ccc(O)cc1)[C@@H](C)O)[C@@H](C)O)C(=O)N[C@@H](Cc1ccccc1)C(=O)N[C@@H](CO)C(=O)NCC(=O)N[C@@H](CCC(=O)O)C(=O)N[C@@H](Cc1ccc(O)cc1)C(=O)O (H-YTTNAFSGEY-OH; N-terminus and C-terminus assumed)
Output: 10.5

###

Catalogue of IC50 readings, one per entry.
# Study System: HLA-A02.01 (Homo sapiens, UniProt P04439, D140Y/D185E/D98H/E176V/E277Q/G131W/G231S/I119V/I121R/I166T/I218V/L300P/L318F/N151K/N90K/P208A/P217A/Q86G/Q94H/R138H/R169H/T345S)
# Experiment Description: Class I MHC peptide binding affinity (displacement of radiolabeled reference peptide)
# Details: Observed Affinity (IC50; (nM)), allele A02.01
Where a SMILES comes first, the peptide text is derived from it.
Give just the number in nM; leave the unit off.

Solved cases (2 shown):
Compound	Measured Parameter	Observed
CC[C@H](C)[C@H](NC(=O)[C@@H]1CCCN1C(=O)[C@H](CC(C)C)NC(=O)[C@H](CC(C)C)NC(=O)[C@H](CCC(=O)O)NC(=O)[C@@H](N)Cc1ccccc1)C(=O)N1CCC[C@H]1C(=O)N1CCC[C@H]1C(=O)N[C@@H](CC(C)C)C(=O)O (H-FELLPIPPL-OH; N-terminus and C-terminus assumed)	IC50	553
CC[C@H](C)[C@H](NC(=O)[C@@H]1CCCN1C(=O)[C@H](CC(C)C)NC(=O)[C@@H](N)CC(C)C)C(=O)N1CCC[C@H]1C(=O)N1CCC[C@H]1C(=O)N[C@@H](CC(C)C)C(=O)N[C@@H](CO)C(=O)N1CCC[C@H]1C(=O)N[C@@H](CO)C(=O)O	IC50	449

Below: the item to evaluate.
Input: // query IC50 value for entry CC(C)C[C@H](NC(=O)[C@H](CC(=O)O)NC(=O)[C@H](CO)NC(=O)[C@H](CCC(N)=O)NC(=O)[C@H](CCC(N)=O)NC(=O)[C@H](CCC(N)=O)NC(=O)[C@H](CCC(N)=O)NC(=O)[C@H](CCC(N)=O)NC(=O)[C@@H](N)Cc1ccc(O)cc1)C(=O)O (H-YQQQQQSDL-OH; N-terminus and C-terminus assumed)
Output: 799

###

# Study System: HLA-A02.01 (Homo sapiens, UniProt P04439, D140Y/D185E/D98H/E176V/E277Q/G131W/G231S/I119V/I121R/I166T/I218V/L300P/L318F/N151K/N90K/P208A/P217A/Q86G/Q94H/R138H/R169H/T345S)
# Experiment Description: Class I MHC peptide binding affinity (displacement of radiolabeled reference peptide)
# Details: allele A02.01; read-out: Observed Affinity (IC50; (nM))
Where a SMILES comes first, the peptide text is derived from it.
Catalogue of IC50 readings, one per entry.
Give just the number in nM; leave the unit off.

Solved cases (6 shown):
Compound	Measured Parameter	Quantity Unit	Observed
CC[C@H](C)[C@H](NC(=O)[C@H](CC(C)C)NC(=O)[C@@H]1CCCN1C(=O)[C@H](Cc1ccccc1)NC(=O)[C@H](CC(C)C)NC(=O)[C@H](CCC(=O)O)NC(=O)[C@@H]1CCCN1C(=O)CNC(=O)[C@@H](N)CCCCN)C(=O)O (H-KGPELFPLI-OH)	IC50	nM	101
CC[C@H](C)[C@H](NC(=O)[C@H](Cc1ccc(O)cc1)NC(=O)[C@H](CCC(=O)O)NC(=O)CNC(=O)[C@H](CO)NC(=O)[C@H](Cc1ccccc1)NC(=O)[C@H](C)N)C(=O)N1CCC[C@H]1C(=O)N[C@H](C(=O)N[C@H](C(=O)O)C(C)C)[C@@H](C)O (H-AFSGEYIPTV-OH; N-terminus and C-terminus assumed)	IC50	nM	781
CC(C)C[C@H](NC(=O)[C@H](C)N)C(=O)N[C@@H](CO)C(=O)N[C@@H](C)C(=O)N[C@@H](CO)C(=O)N[C@@H](CC(N)=O)C(=O)N[C@@H](CO)C(=O)N[C@@H](CS)C(=O)N[C@@H](Cc1ccccc1)C(=O)O (H-ALSASNSCF-OH; N-terminus and C-terminus assumed)	IC50	nM	728
CC[C@H](C)[C@H](NC(=O)[C@H](C)N)C(=O)N[C@@H](CCC(N)=O)C(=O)N1CCC[C@H]1C(=O)N[C@H](C(=O)N[C@@H](CC(C)C)C(=O)N[C@@H](Cc1c[nH]c2ccccc12)C(=O)N[C@H](C(=O)N[C@H](C(=O)O)[C@@H](C)O)[C@@H](C)O)C(C)C (H-AIQPVLWTT-OH; N-terminus and C-terminus assumed)	IC50	nM	8.1
CC[C@H](C)[C@H](NC(=O)[C@H](CCC(N)=O)NC(=O)[C@@H](N)CO)C(=O)N[C@@H](CCSC)C(=O)N[C@@H](CO)C(=O)N[C@@H](CC(C)C)C(=O)N[C@@H](Cc1c[nH]c2ccccc12)C(=O)NCC(=O)N[C@@H](CC(C)C)C(=O)O	IC50	nM	62
CSCC[C@H](NC(=O)[C@@H](NC(=O)[C@H](Cc1ccc(O)cc1)NC(=O)[C@H](C)NC(=O)[C@H](CCSC)NC(=O)[C@@H](NC(=O)[C@@H](N)Cc1ccc(O)cc1)C(C)C)C(C)C)C(=O)N[C@@H](C)C(=O)NCC(=O)O	IC50	nM	11500

Input: // query IC50 value for entry "CC(C)C[C@H](NC(=O)[C@H](CO)NC(=O)[C@H](CC(N)=O)NC(=O)[C@H](CS)NC(=O)[C@H](CCC(=O)O)NC(=O)[C@H](Cc1c[nH]cn1)NC(=O)[C@H](CC(C)C)NC(=O)[C@@H](NC(=O)[C@@H](N)CCC(N)=O)C(C)C)C(=O)O"
Output: 7770

Hello, the source for this data is patent US20220282217A1, in case you need it.
